# Tested target: SARS-COV-2 RBD extracellular domain expressed with a C-terminal mouse IgG2a (SARS-CoV-2)
Entries and their measured t½ follow.

{"columns": ["Binder", "Readout unit", "Relational operator", "t½"],
 "data": [
  ["mAb10913 (antibody, V domains shown) VH: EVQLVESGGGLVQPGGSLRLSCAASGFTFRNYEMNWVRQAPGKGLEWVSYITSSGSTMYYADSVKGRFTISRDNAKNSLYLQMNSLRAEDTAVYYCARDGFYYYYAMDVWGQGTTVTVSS VL: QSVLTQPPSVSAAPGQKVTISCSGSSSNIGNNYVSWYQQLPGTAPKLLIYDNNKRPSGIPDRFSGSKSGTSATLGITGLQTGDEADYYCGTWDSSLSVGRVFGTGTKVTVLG", "h", "=", 1.27],
  ["mAb10989 (antibody, V domains shown) VH: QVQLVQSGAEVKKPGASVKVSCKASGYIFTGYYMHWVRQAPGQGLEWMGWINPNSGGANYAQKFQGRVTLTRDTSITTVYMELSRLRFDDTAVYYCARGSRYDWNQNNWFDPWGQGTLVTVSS VL: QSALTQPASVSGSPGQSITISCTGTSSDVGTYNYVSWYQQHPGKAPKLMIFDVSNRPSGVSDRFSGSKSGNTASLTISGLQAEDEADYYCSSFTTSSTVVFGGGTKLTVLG", "h", "=", 2.07],
  ["mAb10954 (antibody, V domains shown) VH: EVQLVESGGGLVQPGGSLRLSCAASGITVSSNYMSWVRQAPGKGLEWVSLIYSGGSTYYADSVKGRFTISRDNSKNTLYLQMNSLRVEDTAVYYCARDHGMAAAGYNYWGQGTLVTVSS VL: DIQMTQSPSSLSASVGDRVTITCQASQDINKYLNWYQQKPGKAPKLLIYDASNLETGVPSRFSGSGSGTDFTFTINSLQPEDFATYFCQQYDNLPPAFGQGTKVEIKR", "h", "≥", 19.2]
]}
